Hey, just so you know, these numbers are from ChEMBL document CHEMBL1201862.

Tested on: CAKI-1
Test: NCI tumour cell line growth inhibition, 48 h
Activity calls are given as the source filed them. Rule as the data show it: active = GI50 up to about 1.1 µM and inactive = higher.
GI50 overview

COc1cc2c(cc1OC)C(=O)/C(=C/c1ccc(O)cc1)CC2
5.82 µM (inactive)
CCOC(=O)C(NC(=O)NC(C(=O)OCC)C(=O)OCC)C(=O)OCC
> 100 µM (inactive)
O=C(c1ccccn1)C1(N2CCCCC2)CCCCC1
> 100 µM (inactive)

The value of GI50 measured for the compound C1CSCCSCCSCCSCCS1 turned out to be > 100 µM (inactive)

The value of GI50 measured for the compound N#C[BH2-][n+]1cn(C2CC(O)C(COP(=O)(O)OC3CC(n4ccc(N)nc4=O)OC3CO)O2)c2nc(N)[nH]c(=O)c21 (stereo unspecified) turned out to be > 100 µM (inactive)

The value of GI50 measured for the compound C[S+](C)CC(=O)c1ccc2c(c1)Sc1ccccc1O2 turned out to be 4.39 µM (inactive)
